Tested on: B. bacteriovorus HD100
Construct: HD100
Assay: microbe, parasite or virus in culture
Set-up: species or system B. bacteriovorus HD100 with E. coli BW25113 prey; Predatory growth on E. coli prey, OD600 reduction, Gompertz-fit MIC by linear regression at PPR 0.02
Settings: Escherichia coli, HD100, 24 h; co-culture with E. coli BW25113 prey, theoretical MIC at PPR 0.02
Hi there, I'd appreciate the recorded log10 of MIC for every entry that follows.
Form field - Quantity: MIC; Unit: µg/mL; Scale: log10

{"smiles str": "CC(C)(O/N=C(\\C(=O)N[C@@H]1C(=O)N2C(C(=O)[O-])=C(C[n+]3ccccc3)CS[C@H]12)c1csc(N)n1)C(=O)O", "log10 of MIC": 0.89}
{"smiles str": "NC[C@H]1O[C@H](O[C@H]2[C@H](O)[C@@H](O[C@H]3O[C@H](CO)[C@@H](O)[C@H](N)[C@H]3O)[C@H](N)C[C@@H]2N)[C@H](O)[C@@H](O)[C@@H]1O", "log10 of MIC": -0.16}
{"smiles str": "NCC[C@H](O)C(=O)N[C@@H]1C[C@H](N)[C@@H](O[C@H]2O[C@H](CN)[C@@H](O)[C@H](O)[C@H]2O)[C@H](O)[C@H]1O[C@H]1O[C@H](CO)[C@@H](O)[C@H](N)[C@H]1O", "log10 of MIC": -0.15}
{"smiles str": "CCN1CCN(C(=O)N[C@@H](C(=O)N[C@@H]2C(=O)N3C(C(=O)O)=C(CSc4nnnn4C)CS[C@H]23)c2ccc(O)cc2)C(=O)C1=O", "log10 of MIC": 0.11}
{"smiles str": "CC1(C)S[C@@H]2[C@H](NC(=O)[C@H](N)c3ccccc3)C(=O)N2[C@H]1C(=O)O", "log10 of MIC": 0.11}

Hi! Can you tell me log10 of MIC for each of these compounds?
1. CN[C@H](CC(C)C)C(=O)N[C@H]1C(=O)N[C@@H](CC(N)=O)C(=O)N[C@H]2C(=O)N[C@H]3C(=O)N[C@H](C(=O)N[C@H](C(=O)O)c4cc(O)cc(O)c4-c4cc3ccc4O)[C@H](O)c3ccc(c(Cl)c3)Oc3cc2cc(c3O[C@@H]2O[C@H](CO)[C@@H](O)[C@H](O)[C@H]2O[C@H]2C[C@](C)(N)[C@H](O)[C@H](C)O2)Oc2ccc(cc2Cl)[C@H]1O
2. O=C(O)c1cn(C2CC2)c2cc(N3CCNCC3)c(F)cc2c1=O
3. CN(C)c1cc(NC(=O)CNC(C)(C)C)c(O)c2c1C[C@H]1C[C@H]3[C@H](N(C)C)C(O)=C(C(N)=O)C(=O)[C@@]3(O)C(O)=C1C2=O
4. CN(C)[C@@H]1C(O)=C(C(N)=O)C(=O)[C@@]2(O)C(O)=C3C(=O)c4c(O)cccc4[C@@](C)(O)[C@H]3C[C@@H]12

1.20
-0.51
-0.23
0.23

List the reported log10 of MIC of each compound below.
1. CC1(C)S[C@@H]2[C@H](NC(=O)Cc3ccccc3)C(=O)N2[C@H]1C(=O)O
2. COc1cc(Cc2cnc(N)nc2N)cc(OC)c1OC
3. C[C@@H](O)[C@H]1C(=O)N2C(C(=O)O)=C(S[C@@H]3CN[C@H](C(=O)N(C)C)C3)[C@H](C)[C@H]12
4. CCC[C@@H]1C[C@@H](C(=O)N[C@@H]([C@H]2O[C@H](SC)[C@H](O)[C@@H](O)[C@H]2O)[C@@H](C)O)N(C)C1

1. 0.53
2. 2.35
3. -0.38
4. 0.90

###

Tested on: B. bacteriovorus HD100
Construct: HD100
Assay: microbe, parasite or virus in culture
Parameters: species or system B. bacteriovorus HD100 with E. coli BW25113 prey; Predatory growth on E. coli prey, OD600 reduction, Gompertz-fit MIC by linear regression at PPR 0.02
Conditions: Escherichia coli, HD100, 24 h; co-culture with E. coli BW25113 prey, theoretical MIC at PPR 0.02
experimental endpoint: MIC (µg/mL)
Numbers only, in µg/mL.

{"compound": "C[C@H]1COc2c(N3CCN(C)CC3)c(F)cc3c(=O)c(C(=O)O)cn1c23", "unit name": "µg/mL", "MIC": 0.23}
{"compound": "C[C@H]1[C@H](NC(=O)/C(=N\\OC(C)(C)C(=O)O)c2csc(N)n2)C(=O)N1S(=O)(=O)O", "unit name": "µg/mL", "MIC": 41}
{"compound": "CCN1CCN(C(=O)N[C@@H](C(=O)N[C@@H]2C(=O)N3[C@@H]2SC(C)(C)[C@@H]3C(=O)O)c2ccccc2)C(=O)C1=O", "unit name": "µg/mL", "MIC": 2.5}
{"compound": "Cc1nnc(SCC2=C(C(=O)O)N3C(=O)[C@@H](NC(=O)Cn4cnnn4)[C@H]3SC2)s1", "unit name": "µg/mL", "MIC": 0.51}
{"compound": "N[C@@H](C(=O)N[C@@H]1C(=O)N2C(C(=O)O)=C(Cl)CS[C@H]12)c1ccccc1", "unit name": "µg/mL", "MIC": 18}
{"compound": "CNC(C)[C@@H]1CC[C@@H](N)[C@@H](O[C@H]2[C@H](O)[C@@H](O[C@H]3OC[C@](C)(O)[C@H](NC)[C@H]3O)[C@H](N)C[C@@H]2N)O1 (stereo partly shown)", "unit name": "µg/mL", "MIC": 0.06}

Could you now consider this next compound?
Per the record, "O=C(N[C@H](CO)[C@H](O)c1ccc([N+](=O)[O-])cc1)C(Cl)Cl" has MIC of 0.16
